target: HLA-A*24:03; assay: IEDB peptide-MHC binding, purified MHC/competitive/fluorescence; filed as Kd, often an IC50 or EC50 that approximates it; bounds were set here for any values at or beyond the usual limits of such assays; conditions: source organism: Escherichia coli O157:H7 str. Sakai
endpoint: Kd

Provide only the value of recorded Kd for HQIWLALRY ≥ 20 µM

====

target: HLA-A*01:01; test: IEDB peptide-MHC binding, purified MHC/competitive/fluorescence; filed as Kd, often an IC50 or EC50 that approximates it; bounds were set here for any values at or beyond the usual limits of such assays; details: source organism: Giardia lamblia ATCC 50803
pKd: −log10 of the molar value.
endpoint: pKd

Entry MTFPLHFRS needs its pKd filled in; supply it. ≤ 5.30

Attribution: the Immune Epitope Database (IEDB)
